Target: cMet (HGFR) ectodomain, cMet-Fc (human, UniProt P08581 P08581:25-932)
Sequence (P08581 25-932, one chain of several): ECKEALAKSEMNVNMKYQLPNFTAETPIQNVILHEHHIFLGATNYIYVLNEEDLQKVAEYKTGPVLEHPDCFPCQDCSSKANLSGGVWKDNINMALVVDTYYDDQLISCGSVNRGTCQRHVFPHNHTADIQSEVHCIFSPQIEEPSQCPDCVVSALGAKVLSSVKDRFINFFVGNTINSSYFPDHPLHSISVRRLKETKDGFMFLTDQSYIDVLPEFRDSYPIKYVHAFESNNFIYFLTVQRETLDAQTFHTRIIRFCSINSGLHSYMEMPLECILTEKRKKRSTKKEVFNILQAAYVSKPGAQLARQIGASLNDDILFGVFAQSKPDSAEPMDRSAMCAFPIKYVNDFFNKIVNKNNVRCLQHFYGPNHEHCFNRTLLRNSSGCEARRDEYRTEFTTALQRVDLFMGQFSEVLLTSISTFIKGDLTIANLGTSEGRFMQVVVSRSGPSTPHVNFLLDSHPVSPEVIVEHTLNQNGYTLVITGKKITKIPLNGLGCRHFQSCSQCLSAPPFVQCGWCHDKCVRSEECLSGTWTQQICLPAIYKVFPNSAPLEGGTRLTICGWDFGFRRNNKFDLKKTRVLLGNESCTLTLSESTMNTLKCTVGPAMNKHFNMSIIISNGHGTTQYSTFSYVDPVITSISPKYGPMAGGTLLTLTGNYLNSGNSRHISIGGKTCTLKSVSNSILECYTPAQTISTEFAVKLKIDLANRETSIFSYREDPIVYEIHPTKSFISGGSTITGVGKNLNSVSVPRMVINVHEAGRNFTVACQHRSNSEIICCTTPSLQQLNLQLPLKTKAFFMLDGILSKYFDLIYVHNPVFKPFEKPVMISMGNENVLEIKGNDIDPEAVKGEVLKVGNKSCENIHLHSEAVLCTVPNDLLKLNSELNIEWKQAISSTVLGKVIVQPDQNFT
Experiment: competition; filter retention vs 32P-trCLN3; ~50 nM cMet; 1x PBS pH 7.4, 2 mM MgCl2, tRNA, BSA, 37 C
Settings: tags: Fc domain of human IgG1 fusion, R&D Systems; chain copies: 2; G4, micellar nanoconstruct above CMC 300-350 nM
measurementLabel: IC50

{"binder": "TGGATGGTAGCTCGGTCGGGGTGGGTGGGTTGGCAAGTCT (structured_DNA, four 5-(1-dodecynyl)-2'-deoxyuridine (C12 lipid) residues at 5' end) [trCLN3-L4]", "result": "43 nM"}
